System: Pasteurella multocida PM 10775 (080130003051)
ASSAY_PROTOCOL: MIC, broth-microdilution (CLSI), strain PM 10775
Format: cell-based
DETAILS: Pasteurella multocida 080130003051, BRD field isolate
Measured MIC PM 10775, listed per entry.

Recorded results for 3 compounds are shown here.
* CNC(=O)C(NC(=O)c1ccc(C#Cc2ccc(CNCc3ccc(OC)cc3)cc2)cc1)C(=O)NO (centres unmarked) | ≤0.1 µM
* CCCNCc1ccc(C#Cc2ccc(C(=O)N(C)C(C(=O)NC)C(=O)NO)cc2)cc1 (centres unmarked) | 0.4 µM
* CNC(=O)C(NC(=O)c1ccc(C#Cc2ccc(CNCc3cccnc3)cc2)cc1)C(=O)NO (centres unmarked) | ≤0.1 µM

CNC(=O)C(C(=O)NO)N(C)C(=O)c1ccc(C#Cc2ccc(CNCc3ccccn3)cc2)cc1 (centres unmarked) tested on Pasteurella multocida PM 10775 (080130003051) gave MIC PM 10775: 0.2 µM

CNC(=O)C(NC(=O)c1ccc(C#Cc2ccc(CNC3CC3)cc2)cc1)C(=O)NO (centres unmarked) tested on Pasteurella multocida PM 10775 (080130003051) gave MIC PM 10775: ≤0.1 µM

CNC(=O)C(NC(=O)c1ccc(C#Cc2ccc(CNCc3ccc(C)cc3)cc2)cc1)C(=O)NO (centres unmarked) tested on Pasteurella multocida PM 10775 (080130003051) gave MIC PM 10775: ≤0.1 µM

CNC(=O)C(NC(=O)c1ccc(C#Cc2ccc(CNCc3ccccn3)cc2)cc1)C(=O)NO (centres unmarked) tested on Pasteurella multocida PM 10775 (080130003051) gave MIC PM 10775: ≤0.1 µM

CNC(=O)C(C(=O)NO)N(C)C(=O)c1ccc(C#Cc2ccc(CN3CCOCC3)cc2)cc1 (centres unmarked) tested on Pasteurella multocida PM 10775 (080130003051) gave MIC PM 10775: ≤0.1 µM

###

Test system: Mannheimia haemolytica MH 6357 (M7/2)
ASSAY_PROTOCOL: MIC, broth-microdilution (CLSI), strain MH 6357
Assay type: cell-based
DETAILS: Mannheimia haemolytica M7/2, reference strain (cattle infection strain)
MEASURED_QUANTITY: MIC MH 6357 (µM)
Give the value, in units of µM, as a plain number.

Recorded results for 6 compounds are shown here.
- CNC(=O)C(NC(=O)c1ccc(C#Cc2ccc(CNC3CCC3)cc2)cc1)C(=O)NO (centres unmarked) [Compound 8]: 3.1
- CNC(=O)C(NC(=O)c1ccc(C#Cc2ccc(CNCc3ccc(OC)cc3)cc2)cc1)C(=O)NO (centres unmarked) [Compound 6]: 0.4
- CNC(=O)C(NC(=O)c1ccc(C#Cc2ccc(CNCc3ccc(C)cc3)cc2)cc1)C(=O)NO (centres unmarked) [Compound 16]: 0.4
- C#CCNCc1ccc(C#Cc2ccc(C(=O)N(C)C(C(=O)NC)C(=O)NO)cc2)cc1 (centres unmarked) [Compound 30]: 0.8
- CNC(=O)C(NC(=O)c1ccc(C#Cc2ccc(CNCCOC)cc2)cc1)C(=O)NO (centres unmarked) [Compound 3]: 1.6
- CNC(=O)C(NC(=O)c1ccc(C#Cc2ccc(CNCc3ccnc(Cl)c3)cc2)cc1)C(=O)NO (centres unmarked) [Compound 12]: 0.2

Memo: CNC(=O)C(NC(=O)c1ccc(C#Cc2ccc(CN3CCOCC3)cc2)cc1)C(=O)NO (centres unmarked) [Compound 4] , reported MIC MH 6357: 1.6

Memo: CNC(=O)C(NC(=O)c1ccc(C#Cc2ccc(CNCC(F)(F)F)cc2)cc1)C(=O)NO (centres unmarked) [Compound 19] , reported MIC MH 6357: 0.2
